Target: human PPARγ2 (Homo sapiens (Human), UniProt P37231)
Sequence (P37231 182-505): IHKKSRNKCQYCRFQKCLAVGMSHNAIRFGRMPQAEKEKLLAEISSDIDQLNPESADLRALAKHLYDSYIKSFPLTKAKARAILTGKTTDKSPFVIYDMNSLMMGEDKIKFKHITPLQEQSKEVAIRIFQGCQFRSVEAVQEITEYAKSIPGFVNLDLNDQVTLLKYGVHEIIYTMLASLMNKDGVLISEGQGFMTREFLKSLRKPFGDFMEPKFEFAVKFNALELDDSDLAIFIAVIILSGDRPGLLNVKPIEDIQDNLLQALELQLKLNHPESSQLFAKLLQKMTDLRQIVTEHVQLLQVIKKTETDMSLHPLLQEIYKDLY
Assay: PPARγ activation effect, Gal4-PPARγ2 LBD luciferase transfection assay in COS7 cells
Settings: Gal4-human PPARγ2 LBD chimera, luciferase reporter, 16 hours, rosiglitazone = 100%
observable: EC50
// unit must come after the numeric part

Example entries and their recorded answers appear below.
CCCc1nc(C(C)C)n(-c2ncc(OCC)cn2)c(=O)c1Cc1ccc(-c2ccccc2-c2noc(=O)[nH]2)nc1 = 400 nM
CCCCCc1nc(C(C)C)n(-c2ncc(OCC)cn2)c(=O)c1Cc1ccc(-c2ccccc2-c2noc(=O)[nH]2)nc1 = 650 nM
CCCc1nc(C2CC2)n(-c2ncc(OCC)cn2)c(=O)c1Cc1ccc(-c2ccccc2-c2noc(=O)[nH]2)nc1 = 560 nM

Return reported EC50. Input compound: CCCCCc1nc(C2CC2)n(-c2ncc(OCC)cn2)c(=O)c1Cc1ccc(-c2ccccc2-c2noc(=O)[nH]2)nc1
590 nM
